# System: HEK293
# Assay text: Toxicity against HEK293 cells
# Assay type: cell-based
# Test settings: human, hek293; read-out: LC50 (the source's name)
Assay metric: CC50 (mM)
Report the figure in mM without appending any unit label.

// recorded CC50 for `GENTAMICIN` : 1.1

* * *

# CC50 listing for each entry below
# Assay text: Toxicity against HEK293 cells
# Type: cell-based
# Test settings: human, HEK293 cells; read-out: LC50 (the source's name)
Could you give me the number in mM? Just the number is fine.

| Smiles repr | CC50 [mM] |
| --- | --- |
| NC[C@@H]1O[C@H](O[C@H]2[C@@H](O)[C@H](O[C@@H]3[C@@H](O)[C@H](N)C[C@H](N)[C@H]3O[C@H]3O[C@H](CO)[C@@H](O)[C@H](O)[C@H]3N)O[C@@H]2CO)[C@H](N)[C@@H](O)[C@@H]1O | 1.2 |

From here, focus on the item given below.
`NC[C@H]1O[C@@H](O[C@@H]2[C@@H](O)[C@H](N)C[C@H](N)[C@H]2O[C@H]2O[C@H](CO)[C@@H](O)[C@H](O)[C@H]2N)[C@H](O)[C@@H]1O` has a reported CC50 of 7.4
